- System: oat, wild (wild oat, Avena fatua)
- test-summary: Test C greenhouse herbicide test, postemergence
- Assay type: in vivo
- condition: Postemergence, 31 g ai/ha; 0 to 100 scale (0 no effect, 100 complete control)
- Excerpt: At the same time, plants selected from these crop and weed species and also chickweed (common chickweed, Stellaria media), kochia (Kochia scoparia), and oat, wild (wild oat, Avena fatua), were planted in pots containing Redi-Earth® planting medium (Scotts Company, 14111 Scottslawn Road, Marysville, Ohio 43041) comprising spaghnum peat moss, vermiculite, wetting agent and starter nutrients and treated with postemergence applications of test chemicals formulated in the same manner. […]
Response field label: string, one of True (Oat, Wild plant response rating strictly below 80) or False.

1) CC(=O)Oc1c(C)nn(C)c(=O)c1-c1c(C)sc2ccc(C)cc12    True
2) Cc1cc(C)c2ccccc2c1-c1c(O)cnn(C)c1=O    True
3) CCC(=O)Oc1c(C)nn(C)c(=O)c1-c1c(C)sc2c(C)cc(C)cc12    False
4) CCC(=O)Oc1c(C)nn(C)c(=O)c1-c1c(C)sc2ccc(C)cc12    True
5) CCOC(=O)Oc1c(C)nn(C)c(=O)c1-c1c(C)ccc2ccccc12    True

----------
- System: nutsedge, yellow (yellow nutsedge, Cyperus esculentus)
- test-summary: Test C greenhouse herbicide test, pre- and postemergence
- Type: in vivo
- condition: Preemergence, 250 g ai/ha; scale 0 to 100 (0 no effect, 100 complete control)
This listing pairs molecules with measured Nutsedge, Yellow plant response rating.
attribute-measured: Nutsedge, Yellow plant response rating

1. CCOC(=O)Oc1c(C)nn(C)c(=O)c1-c1c(C)ccc2ccccc12    95
2. Cc1ccc2ccccc2c1-c1c(O)c(Cl)nn(C)c1=O    90
3. CCC(=O)Oc1c(C)nn(C)c(=O)c1-c1c(C)sc2ccc(Cl)cc12    80
4. CCOC(=O)Oc1c(C)nn(C)c(=O)c1-c1c(CC)ccc2ccccc12    60
5. Cc1cc(C)c2ccccc2c1-c1c(OS(C)(=O)=O)c(C)nn(C)c1=O    85

----------
- Tested on: ragweed (common ragweed, Ambrosia elatior)
- test-summary: Test C greenhouse herbicide test, pre- and postemergence
- Assay type: in vivo
- condition: Preemergence, 62 g ai/ha; scale 0 to 100, 0 is no effect, 100 is complete control
attribute-measured: Plant response rating, Ragweed

1. Cc1ccc2sc(C)c(-c3c(O)c(C)nn(C)c3=O)c2c1 [Compound 1]    80
2. CCOC(=O)Oc1c(C)nn(C)c(=O)c1-c1c(C)sc2ccc(C)cc12 [Compound 82]    90
3. CCCC(=O)Oc1c(C)nn(C)c(=O)c1-c1c(C)sc2c(C)cc(C)cc12 [Compound 106]    90
4. CCOC(=O)Oc1c(C)nn(C)c(=O)c1-c1c(C)ccc2ccccc12 [Compound 73]    95
5. C#CCOC(=O)Oc1c(C)nn(C)c(=O)c1-c1c(C)sc2ccc(C)cc12 [Compound 87]    90
6. CC(=O)Oc1c(C)nn(C)c(=O)c1-c1c(C)cc(C)c2ccccc12 [Compound 153]    95
7. Cc1ccc2ccccc2c1-c1c(O)c(Cl)nn(C)c1=O [Compound 125]    100
8. COc1nn(C)c(=O)c(-c2c(C)ccc3ccccc23)c1OC(C)=O [Compound 138]    100
9. CSCC(=O)Oc1c(C)nn(C)c(=O)c1-c1cccc2ccccc12 [Compound 171]    80

----------
Recorded Plant response rating, Kochia for the following compounds
- System: kochia (Kochia scoparia)
- test-summary: Test A greenhouse herbicide test, pre- and postemergence
- Assay type: in vivo
- condition: Preemergence, 125 g ai/ha; visual injury rating, 0 to 100 scale (0 no effect, 100 complete control), approx. 10 d
attribute-measured: Plant response rating, Kochia

1) Cc1n[nH]c(=O)c(-c2cccc3ccccc23)c1OC(F)F [Compound 175]    0
2) Cc1cc(C)c2ccccc2c1-c1c(OS(C)(=O)=O)c(C)nn(C)c1=O [Compound 154]    0
3) CC(=O)Oc1c(C)nn(C)c(=O)c1-c1c([N+](=O)[O-])ccc2ccccc12 [Compound 164]    60
4) COC(=O)Cn1nc(C)c(O)c(-c2cccc3ccccc23)c1=O [Compound 172]    0
5) Cc1nn(C)c(=O)c(-c2ccc(Cl)c3ccccc23)c1OS(=O)(=O)N(C)C [Compound 185]    0
6) Cc1nn(C)c(=O)c(-c2c([N+](=O)[O-])ccc3ccccc23)c1OC(=O)C(C)(C)C [Compound 163]    0
7) CSCC(=O)Oc1c(C)nn(C)c(=O)c1-c1cccc2ccccc12 [Compound 171]    100
8) Cc1ccc2ccccc2c1-c1c(OC(=O)N2CCOCC2)c(Br)nn(C)c1=O [Compound 176]    0

----------
Collected Plant response rating, Galium values appear next to each entry.
- Tested on: galium (catchweed bedstraw, Galium aparine)
- test-summary: Test C greenhouse herbicide test, pre- and postemergence
- Type: in vivo
- condition: Preemergence, 62 g ai/ha; scale 0 to 100, 0 is no effect, 100 is complete control
attribute-measured: Plant response rating, Galium

1. C#CCOC(=O)Oc1c(C)nn(C)c(=O)c1-c1c(C)sc2ccc(C)cc12 [Compound 87]    95
2. CCC(=O)Oc1c(C)nn(C)c(=O)c1-c1c(C)sc2ccc(Cl)cc12 [Compound 109]    90
3. CCOC(=O)Oc1c(C)nn(C)c(=O)c1-c1c(C)sc2c(C)cc(C)cc12 [Compound 83]    90
4. CCC(=O)Oc1c(C)nn(C)c(=O)c1-c1c(C)sc2ccc(C)cc12 [Compound 42]    90
5. CCOC(=O)Oc1c(C)nn(C)c(=O)c1-c1c(CC)ccc2ccccc12 [Compound 37]    90
6. CC(=O)Oc1c(Br)nn(C)c(=O)c1-c1c(C)ccc2ccccc12 [Compound 129]    98
7. COc1nn(C)c(=O)c(-c2c(C)ccc3ccccc23)c1O [Compound 54]    95
8. CC(=O)Oc1c(C)nn(C)c(=O)c1-c1c(C)cc(C)c2ccccc12 [Compound 153]    98

----------
Plant response rating, Ryegrass, Italian overview
- Tested on: Italian ryegrass (Lolium multiflorum)
- test-summary: Test E greenhouse herbicide test, pre- and postemergence
- Format: in vivo
- condition: 62 g ai/ha, Preemergence; scale 0 to 100 (0 no effect, 100 complete control)
attribute-measured: Plant response rating, Ryegrass, Italian

1) CC(=O)Oc1c(C)nn(C)c(=O)c1-c1c(C)sc2c(C)cc(C)cc12    95
2) CCOC(=O)Oc1c(C)nn(C)c(=O)c1-c1c(C)sc2c(C)cc(C)cc12    95
3) CCC(=O)Oc1c(C)nn(C)c(=O)c1-c1c(C)sc2c(C)cc(C)cc12    80
4) C#CCOC(=O)Oc1c(C)nn(C)c(=O)c1-c1c(C)sc2ccc(C)cc12    95

----------
- System: foxtail, giant (giant foxtail, Setaria faberii)
- test-summary: Test C greenhouse herbicide test, pre- and postemergence
- Assay type: in vivo
- condition: Postemergence, 62 g ai/ha; 0 to 100 scale (0 no effect, 100 complete control)
attribute-measured: Foxtail, Giant plant response rating

1) COc1nn(C)c(=O)c(-c2c(C)ccc3ccccc23)c1OC(C)=O    60
2) CC(=O)Oc1c(Br)nn(C)c(=O)c1-c1c(C)ccc2ccccc12    75
3) Cc1ccc2ccccc2c1-c1c(OC(=O)N2CCOCC2)c(Br)nn(C)c1=O    15
4) Cc1nn(C)c(=O)c(-c2cccc3ccc(C#N)cc23)c1O    5

----------
- System: nutsedge, yellow (yellow nutsedge, Cyperus esculentus)
- test-summary: Test C greenhouse herbicide test, pre- and postemergence
- Format: in vivo
- condition: Postemergence, 250 g ai/ha; scale 0 to 100, 0 no effect, 100 complete control; 13 to 15 d
# strict inequality: Plant response rating, Nutsedge, Yellow < 80 yields Criterion met, everything else yields Criterion not met

1. Cc1cc(C)c2ccccc2c1-c1c(O)cnn(C)c1=O [Compound 51]    Criterion not met
2. CC(=O)Oc1c(C)nn(C)c(=O)c1-c1c(C)sc2ccc(C)cc12 [Compound 25]    Criterion not met
3. COc1nn(C)c(=O)c(-c2c(C)sc3ccccc23)c1O [Compound 33]    Criterion met
4. COC(=O)Oc1c(Br)nn(C)c(=O)c1-c1c(C)ccc2ccccc12 [Compound 137]    Criterion not met
5. COC(=O)Oc1c(C)nn(C)c(=O)c1-c1c(C)sc2c(C)cc(C)cc12 [Compound 81]    Criterion not met
6. Cc1ccc2ccccc2c1-c1c(O)cnn(C)c1=O [Compound 56]    Criterion met
7. CCC(=O)Oc1c(Cl)nn(C)c(=O)c1-c1c(C)sc2ccc(Cl)cc12 [Compound 111]    Criterion met
8. CCC(=O)Oc1c(C)nn(C)c(=O)c1-c1c(C)sc2c(C)cc(C)cc12 [Compound 28]    Criterion not met
9. Cc1nn(C)c(=O)c(-c2cccc3ccc(C#N)cc23)c1O [Compound 127]    Criterion met
10. CCC(=O)Oc1c(C)nn(C)c(=O)c1-c1ccc(Br)c2ccccc12 [Compound 133]    Criterion not met
